- target desc: T1, biotinylated CRH (human and mouse, not fully specified; biotinylated, position not stated)
- T1 construct: also called Biotin-CRH; biotin-labeled CRH
- T1 peptide: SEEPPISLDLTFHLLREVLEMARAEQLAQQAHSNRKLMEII
- assay overview: Octet BLI, biotinylated CRH on SA sensor

binder	kon, M⁻¹ s⁻¹
PR302334-24 (antibody, human IgG1, kappa, V domains shown, Humanized variant of PR302334) VH: EVQLVESGGGLVKPGGSLRLSCAASGFTFSTYAMSWVRQAPGKGLEWVASIRSGGTTYYPDSVKGRFTISRDNAKNSLYLQMNSLRAEDTAVYYCTRGIDWGQGTTVTVSS VL: DIVMTQSPDSLAVSLGERATINCKASQSVNNDVAWYQQKPGQPPRLLIYYASNRYTGVPDRFSGSGSGTDFTLTISSLQAEDLAVYFCQQDYSSWTFGGGTKVEIKR	606000
PR302334-11 (antibody, human IgG1, kappa, V domains shown, Humanized variant of PR302334) VH: EVQLVESGGGLVQPGGSLRLSCAASGFTFSTYAMSWVRQAPGKGLEWVASIRSGGTTYYPDSVKGRFTISRDNSKNTLYLQMNSLRAEDTAVYYCTRGIDWGQGTTVTVSS VL: DIQMTQSSLSASVSLGDRVTITCKASQSVNNDVAWYQQKPGKAPRLLIYYASNRYTGVPSRFSGSGSGTDFTFTISSLQPEDIATYYCQQDYSSWTFGGGTKVEIKR	684000
PR005662 (antibody, human IgG1, kappa, V domains shown, PTM-removal variant of PR004290) VH: EVQLVESGGVLVQPGGSLRLSCAASGFTFSSYWMTWVRQAPGKGLEWVANIKQDASEKYYVDSVKGRFTISRDNAKNSLFLQMNSLRAEDTAVYYCARTLIFDYWGQGTLVTVSS VL: DIVMTQSPLSLPVTPGEPASISCRSSQSLLHSTGYQSLEWYLQKPGQSPQLLIYLGSNRASGVPDRFSGSGSGTDFTLKISRVEAEDVGIYYCMQTLQTPITFGQGTRLEIKR	396000
